Cited source: paper PMC9455983

Target system: delta-opioid receptor (DOR) (Rattus norvegicus, UniProt P33533)
Construct: Rat cortices were homogenized using 50 mM Tris, pH 7.4, 10 mM MgCl2-6H2O, 200 µM PMSF; from tissue; host or cells: rat cortex membranes
Sequence (P33533 whole entry): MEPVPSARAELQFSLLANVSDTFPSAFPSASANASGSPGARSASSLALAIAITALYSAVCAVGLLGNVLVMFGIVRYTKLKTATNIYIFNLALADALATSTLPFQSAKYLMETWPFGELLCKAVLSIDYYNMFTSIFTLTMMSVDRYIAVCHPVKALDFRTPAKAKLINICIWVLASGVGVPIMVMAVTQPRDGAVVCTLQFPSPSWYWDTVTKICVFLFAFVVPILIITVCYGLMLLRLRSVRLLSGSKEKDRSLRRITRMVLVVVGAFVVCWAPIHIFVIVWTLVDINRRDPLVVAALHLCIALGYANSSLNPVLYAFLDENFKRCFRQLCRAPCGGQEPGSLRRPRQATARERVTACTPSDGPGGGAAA
Protocol text: DOR radioligand competition binding assay ([3H]-DPDPE)
Condition info: Delta screening results, second Ki column; unit not printed (apparently M); read-out: Ki (second column)
Please use 1 for Ki under 5 µM and -1 for everything else, ties included.

Solved entries:
| Smiles structure | Target system | Label |
| --- | --- | --- |
| CC(C)C[C@H]1CN([C@@H](Cc2ccccc2)CN2C(=N)NC[C@@H]2Cc2ccccc2)C(=N)N1 | delta-opioid receptor (DOR) (Rattus norvegicus, UniProt P33533) | -1 |
| CC(C)C[C@@H](CN1C(=N)NC[C@@H]1Cc1ccc(O)cc1)N1C[C@H](Cc2ccc(O)cc2)NC1=N | delta-opioid receptor (DOR) (Rattus norvegicus, UniProt P33533) | -1 |
| CC(C)C[C@H]1CN([C@@H](Cc2ccc(O)cc2)CN2C(=N)NC[C@@H]2C)C(=N)N1 | delta-opioid receptor (DOR) (Rattus norvegicus, UniProt P33533) | 1 |
| Cc1cc(O)cc(C)c1C[C@H]1CN([C@@H](Cc2c(C)cc(O)cc2C)CN2C(=N)NC[C@@H]2Cc2c(C)cc(O)cc2C)C(=N)N1 | delta-opioid receptor (DOR) (Rattus norvegicus, UniProt P33533) | 1 |
| Cc1cc(O)cc(C)c1C[C@H]1CNC(=N)N1C[C@H](Cc1ccc(O)cc1)N1C[C@H](CC(C)C)NC1=N | delta-opioid receptor (DOR) (Rattus norvegicus, UniProt P33533) | 1 |

Next, consider the following compound.
[ask] Find out if reported Ki for Cc1cc(O)cc(C)c1C[C@@H](CN1C(=N)NC[C@@H]1Cc1ccc(O)cc1)N1C[C@H](Cc2ccc(O)cc2)NC1=N is less than 5 µM
[reply] 1

====

Target system: delta-opioid receptor (DOR) (Rattus norvegicus)
Construct: Rat cortices were homogenized using 50 mM Tris, pH 7.4, 10 mM MgCl2-6H2O, 200 µM PMSF; from tissue; host or cells: rat cortex membranes
Protocol text: DOR radioligand competition binding assay ([3H]-DPDPE)
Condition info: Delta screening results, mean of both Ki; unit inferred; read-out: MEAN (Ki)
Catalogue of pKi readings, one per entry.
In textbook form, pKi equals minus log to base ten of the concentration in mol/L.

Answered examples (5):
| Compound | Target system | pKi |
| --- | --- | --- |
| Cc1cc(O)cc(C)c1C[C@H]1CN([C@@H](Cc2ccc(O)cc2)CN2C(=N)NC[C@@H]2Cc2c(C)cc(O)cc2C)C(=N)N1 [1968-56] | delta-opioid receptor (DOR) (Rattus norvegicus) | 5.89 |
| Cc1cc(O)cc(C)c1C[C@H]1CN([C@@H](Cc2c(C)cc(O)cc2C)CN2C(=N)NC[C@@H]2C)C(=N)N1 [1968-22] | delta-opioid receptor (DOR) (Rattus norvegicus) | 6.58 |
| Cc1cc(O)cc(C)c1C[C@@H](CN1C(=N)NC[C@@H]1Cc1ccc(O)cc1)N1C[C@H](CC(C)C)NC1=N [1968-31] | delta-opioid receptor (DOR) (Rattus norvegicus) | 5.71 |
| CC(C)C[C@H]1CN([C@@H](CC(C)C)CN2C(=N)NC[C@@H]2Cc2ccccc2)C(=N)N1 [1968-11] | delta-opioid receptor (DOR) (Rattus norvegicus) | 4.23 |
| Cc1cc(O)cc(C)c1C[C@H]1CN([C@@H](CC(C)C)CN2C(=N)NC[C@@H]2Cc2c(C)cc(O)cc2C)C(=N)N1 [1968-60] | delta-opioid receptor (DOR) (Rattus norvegicus) | 6.09 |

// below: pKi requested for another compound
[ask] Please give the documented pKi of Cc1cc(O)cc(C)c1C[C@H]1CNC(=N)N1C[C@H](Cc1c(C)cc(O)cc1C)N1C[C@H](Cc2ccc(O)cc2)NC1=N [1968-62]
[reply] 5.89
